Overview of recorded growth inhibition for various compounds
Test: NCI Yeast Anticancer Drug Screen. Data for the wt1 strain (AID 149);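 further: 0% = growth of vehicle-treated wt1 cultures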
Conditions: S. cerevisiae wt1 strain (SPY 50644) growth inhibition; at 1.2 µM; active compounds read high
Compounds without any hit were thinned out: in the full panel of roughly 79,000, 15% have a hit.
Measured property: growth inhibition (%)

1) CC(C)=CC(=O)O[C@@H]1CC(C)(C)CC2C3=CCC4[C@]56CC[C@](O)(OC5)C(C)(C)C6CC[C@@]4(C)C3(C)CC[C@]21C(=O)O (stereo partly drawn) ... -23
2) CCCc1cc(C(=O)OCC)cc(CCC)c1O ... -1
3) CC(=O)Nc1ccc(/C=C(\C#N)c2ccc(C)cc2)cc1 ... 0
4) CCOC(=O)c1cc([N+](=O)[O-])cc([N+](=O)[O-])c1Sc1ncnc2nc[nH]c12 ... -29
5) CCCCCCCCCCCCCCCCCCN(C)CC(COP(=O)([O-])OCC[N+](C)(C)C)OC (stereo not drawn) ... 0
6) CCCC/C=C/C(CC)(C(=O)OCC)C(=O)OCC ... -2
7) Cn1c2ccccc2c(=O)c2cc(NC(=O)CCCCC(=O)Nc3ccc4c(c3)c(=O)c3ccccc3n4C)ccc21 ... 4
8) c1ccc2c(c1)-c1nc3ccccc3cc1C2N1CCOCC1 (stereo not drawn) ... 1
9) O=C1C2C=CC1C1C(=O)OC(=O)C21 (stereo not drawn) ... -50
10) CC(C)OC(=O)Oc1ccccc1OC(=O)OC(C)C ... -2
11) Oc1c(Br)cc(Br)cc1C1CCCCC1 ... -21
12) O=Cc1cccc2ccc3ccccc3c12 ... -6
13) NC(=S)N/N=C\c1nccc2ccccc12 ... -6
14) CCC/C(Cl)=N\OC(=O)Nc1cccc(C(F)(F)F)c1 ... 1
15) c1ccc(-c2nc3cccnc3s2)cc1 ... -2
16) N#CC(C(=O)Nc1ccccc1)C1=C(Cl)C(=O)c2ccccc2C1=O (stereo not drawn) ... -23
17) CCN(CC)C(C)(C)C(=O)/C=C/c1ccccc1 ... 0
18) NC1=NS(=O)(=O)N=C(N)C1=Cc1ccc([N+](=O)[O-])o1 ... -20
19) O=[N+]([O-])c1ccc(=S)[nH]c1 ... -1
20) CN1Cc2ccccc2/C=C\c2ccccc21 ... -3
21) Nc1nc(Cl)c(Cl)c(Cl)n1 ... -2
22) O=[N+]([O-])/C=C/c1ccc2ccccc2c1 ... -1
23) N#Cc1c(N)[nH]c2ccc(Sc3ccccc3)cc12 ... 1
24) O=C(/C=C/c1cccc(Br)c1)c1cccs1 ... -15
25) S=C(S)NN1CCOCC1 ... 43
26) CC(=O)OC1CCC2(C)C(=CCC3C4CCC5(OC6CC(C)CN(C(C)=O)C6C5C)C(C)=C4C(=O)C32)C1 (stereo not drawn) ... 2
27) COC1=CC(=O)C2C(C1=O)C(c1ccc(Cl)cc1)[C@@H]2C (stereo partly drawn) ... 11
28) O=[N+]([O-])CC(SCc1ccccc1)c1ccc2c(c1)OCO2 (stereo not drawn) ... 23
29) CC[n+]1ccc2c(C)c3[nH]c4ccc(O)cc4c3c(C)c2c1 ... -13
30) CC(C)C1=CCC2C(=C1)CCC1C(C)(C(=O)O)CCCC21C (stereo not drawn) (tested in a mixture with another compound) ... 11
31) c1ccc2c(c1)C(=NCCCN1CCCCCC1)c1cccn1-2 ... -2
32) NC(=O)NN=C(CS)CS ... -1
33) O=C1Nc2ccccc2/C1=C/COc1ccccc1 ... -1
